Biological target: T1, human IGSF11 (VSIG3) expressed on the surface of cells (human, UniProt Q5DX21 23-431)
T1 construct: one molecule for all cell lines; the cell line is named under assay; also called IGSF11-expressing cells; HEK-OE
T1 sequence: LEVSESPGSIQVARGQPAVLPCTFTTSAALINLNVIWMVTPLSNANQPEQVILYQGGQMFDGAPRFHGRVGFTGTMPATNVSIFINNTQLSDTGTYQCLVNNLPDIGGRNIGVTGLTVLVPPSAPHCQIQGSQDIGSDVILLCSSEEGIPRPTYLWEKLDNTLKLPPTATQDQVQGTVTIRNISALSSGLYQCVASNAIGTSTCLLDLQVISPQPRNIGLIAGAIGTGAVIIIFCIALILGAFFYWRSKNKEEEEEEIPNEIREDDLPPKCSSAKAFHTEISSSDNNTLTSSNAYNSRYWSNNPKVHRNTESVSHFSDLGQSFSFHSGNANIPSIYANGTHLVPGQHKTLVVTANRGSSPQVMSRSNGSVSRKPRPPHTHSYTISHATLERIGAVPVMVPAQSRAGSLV
Experiment: FACS on DMS 273 cells treated with scrambled control siRNA (SC)
property-measured: percentage binding (%)
Report as a plain number; the unit % is understood.

These solved cases illustrate the format of a correct answer.
Query A-006 (human IgG1 format) (antibody, V domains shown, human IgG1 format) VH: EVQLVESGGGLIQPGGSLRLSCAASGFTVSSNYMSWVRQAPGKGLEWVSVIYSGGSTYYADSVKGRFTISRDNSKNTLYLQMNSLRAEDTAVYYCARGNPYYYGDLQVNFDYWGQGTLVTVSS VL: QAVVTQEPSLTVSPGGTVTLTCASSTGAVTSGYYPNWFQQKPGQAPRPLIYSTSNKHSWTPARFSGSLLGGKAALTLSGVQPDDEAEYYCLLYYGGDWVFGGGTKLTVL yields percentage binding of 81.1

Query A-011 (human IgG1 format) (antibody, V domains shown, human IgG1 format) VH: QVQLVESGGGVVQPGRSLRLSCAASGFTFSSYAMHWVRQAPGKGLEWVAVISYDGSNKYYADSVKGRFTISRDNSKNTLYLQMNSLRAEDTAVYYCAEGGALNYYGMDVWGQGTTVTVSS VL: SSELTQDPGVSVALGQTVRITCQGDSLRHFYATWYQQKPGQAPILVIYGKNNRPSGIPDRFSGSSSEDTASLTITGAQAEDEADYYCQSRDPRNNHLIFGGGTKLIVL yields percentage binding of 6.95

Query B-002 (chain-swapped, human IgG1 format) (antibody, V domains shown, VH of A-006 with VL of A-012; IgG1 format; also called B2; Chains-B-002) VH: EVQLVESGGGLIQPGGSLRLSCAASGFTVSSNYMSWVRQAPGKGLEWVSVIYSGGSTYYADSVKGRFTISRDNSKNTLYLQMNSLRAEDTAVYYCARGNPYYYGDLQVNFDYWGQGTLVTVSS VL: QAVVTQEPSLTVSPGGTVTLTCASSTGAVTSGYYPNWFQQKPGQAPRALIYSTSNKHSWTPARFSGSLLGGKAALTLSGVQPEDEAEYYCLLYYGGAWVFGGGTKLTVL yields percentage binding of 80.1

// next entry
Query A-012 (human IgG1 format) (antibody, V domains shown, human IgG1 format) VH: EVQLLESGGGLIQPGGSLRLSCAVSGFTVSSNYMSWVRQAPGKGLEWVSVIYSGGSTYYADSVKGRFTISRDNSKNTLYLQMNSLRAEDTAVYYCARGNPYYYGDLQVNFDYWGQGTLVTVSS VL: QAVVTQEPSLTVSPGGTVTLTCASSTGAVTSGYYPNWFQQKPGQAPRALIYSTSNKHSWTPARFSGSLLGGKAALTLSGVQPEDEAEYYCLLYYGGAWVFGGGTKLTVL yields percentage binding of 75.8
